Literature survey of log10(Ki) (system: 5-hydroxytryptamine receptor 1A (Homo sapiens, UniProt P08908)).
Target: 5-hydroxytryptamine receptor 1A (Homo sapiens, UniProt P08908)
Sequence (P08908 whole entry): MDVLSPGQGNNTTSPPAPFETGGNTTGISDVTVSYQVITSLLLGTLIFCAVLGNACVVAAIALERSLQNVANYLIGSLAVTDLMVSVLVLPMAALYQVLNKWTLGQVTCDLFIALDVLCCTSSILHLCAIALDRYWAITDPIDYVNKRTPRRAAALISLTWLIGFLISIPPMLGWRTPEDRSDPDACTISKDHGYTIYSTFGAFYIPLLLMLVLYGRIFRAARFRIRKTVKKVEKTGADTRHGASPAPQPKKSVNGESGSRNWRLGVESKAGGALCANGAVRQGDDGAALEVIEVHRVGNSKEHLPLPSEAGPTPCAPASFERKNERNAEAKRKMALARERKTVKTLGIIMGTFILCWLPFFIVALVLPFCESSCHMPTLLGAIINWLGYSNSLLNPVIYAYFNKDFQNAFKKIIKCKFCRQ
Lab note - Ki converted to log10 from values in µM.

INPUT: // query log10(Ki) value for entry `COc1ccccc1N1CCN(CCCNc2ccc3ccccc3n2)CC1`
OUTPUT: -1.89

INPUT: // query log10(Ki) value for entry `O=S1(=O)c2cccc3cccc(c23)N1CCCCCCN1CCN(c2ccc(C(F)(F)F)cc2)CC1`
OUTPUT: 0.00

INPUT: // query log10(Ki) value for entry `COc1cccc(C(=O)Nc2ccc3[nH]cc(C4CCN(C)CC4)c3n2)c1`
OUTPUT: -1.01

INPUT: // query log10(Ki) value for entry `COc1ccc(N2CCN(CCN3C(=O)CC4(CCCC4)CC3=O)CC2)cc1`
OUTPUT: -1.26

INPUT: // query log10(Ki) value for entry `O=C1CCc2ccc(OCCCCN3CCN(c4cccc5c(F)cccc45)CC3)nc2N1`
OUTPUT: -2.52

INPUT: // query log10(Ki) value for entry `O=c1oc2ccccc2c(=O)n1CCCCN1CCN(c2ccccc2)CC1`
OUTPUT: -2.55

INPUT: // query log10(Ki) value for entry `CSc1ccccc1N1CCN(CCCCCC(=O)N2CCc3ccccc3C2)CC1`
OUTPUT: -2.69

INPUT: // query log10(Ki) value for entry COc1cccc(OC)c1[S+]([O-])CCNCCOc1ccccc1OCc1ccccc1 (configuration not stated)
OUTPUT: -2.50

INPUT: // query log10(Ki) value for entry COc1ccc(C(CCN2CCN(c3ccccc3OC)CC2)Oc2ccc(C(F)(F)F)cc2)cc1 (configuration not stated)
OUTPUT: 0.00

INPUT: // query log10(Ki) value for entry `Fc1ccc(OCc2ccc(Cl)c(Cl)c2)c(C2CCNCC2)c1`
OUTPUT: 0.06

INPUT: // query log10(Ki) value for entry O=C1Nc2cccc3c2C1(CCCCN1CCc2sccc2C1)CCC3 (configuration not stated)
OUTPUT: -0.29

INPUT: // query log10(Ki) value for entry `Fc1ccc(OCCCN2CCC(c3ccc(Cl)cc3)CC2)cc1`
OUTPUT: -0.77

INPUT: // query log10(Ki) value for entry `O=C(CCN1CCN(c2ccc(Cl)cc2)CC1)c1csc2ccccc12`
OUTPUT: 0.70

INPUT: // query log10(Ki) value for entry `COc1nsnc1N1CCN(C[C@@H](Cc2ccccc2)N(C)C(=O)c2ccccc2)CC1`
OUTPUT: -2.00

INPUT: // query log10(Ki) value for entry `COc1ccc2[nH]cc([C@H]3CC[C@H](N4CCN(c5cccc6[nH]ccc56)CC4)CC3)c2c1`
OUTPUT: -2.54

INPUT: // query log10(Ki) value for entry `CCCCCCC[C@H](O)CC(=O)CCc1ccc(O)c(OC)c1`
OUTPUT: 1.07

INPUT: // query log10(Ki) value for entry `Cc1cccnc1-c1ccc(C(=O)NC/C=C/CN2CCN(c3cccc(Cl)c3Cl)CC2)cc1`
OUTPUT: -1.04

INPUT: // query log10(Ki) value for entry COc1cc2ncnc(N3CCC(CN4CCN(c5cccc(Cl)c5)CC4)C3)c2cc1OC (configuration not stated)
OUTPUT: -1.52

INPUT: // query log10(Ki) value for entry `c1ccc(COc2ccccc2C2CCNCC2)cc1`
OUTPUT: -0.92

INPUT: // query log10(Ki) value for entry `N#Cc1ccc2[nH]cc([C@H]3CC[C@H](N4CCN(c5cccc6nccnc56)CC4)CC3)c2c1`
OUTPUT: -2.04

INPUT: // query log10(Ki) value for entry `CSc1ccccc1N1CCN(CCCCCC(=O)NCc2ccncc2)CC1`
OUTPUT: -2.09

INPUT: // query log10(Ki) value for entry `c1ccc(Oc2ccccc2OC2CNC2)cc1`
OUTPUT: -1.24

INPUT: // query log10(Ki) value for entry `Cc1ccc2c(OCCN3CCC(Cc4cccc(N5CCN(C)CC5=O)c4)CC3)cccc2n1`
OUTPUT: -1.70

INPUT: // query log10(Ki) value for entry `O=C(NC1CCN(CCOc2ccccc2-c2ccccc2)CC1)c1cccc(Cl)c1`
OUTPUT: -0.83

INPUT: // query log10(Ki) value for entry `CCOC(=O)c1ccccc1N1CCN(CCN2C(=O)CC3(CCCC3)CC2=O)CC1`
OUTPUT: -2.39

INPUT: // query log10(Ki) value for entry `COc1ccccc1N1CCN(CCCCN2C(=O)C[C@H](NC(=O)C3CCCCC3)C2=O)CC1`
OUTPUT: -1.54

INPUT: // query log10(Ki) value for entry `COc1cccc(CCc2ccccc2OCCN2CCN(c3cccc(Cl)c3)CC2)c1`
OUTPUT: -0.16

INPUT: // query log10(Ki) value for entry `O=C1c2ccccc2S(=O)(=O)N1CCCCN1CCN(c2cccc(C(F)(F)F)c2)CC1`
OUTPUT: -1.00

INPUT: // query log10(Ki) value for entry `O=C1CC2(CCCC2)CC(=O)N1CCN1CCN(c2ccccc2Br)CC1`
OUTPUT: -2.89

INPUT: // query log10(Ki) value for entry `O=C1CC2(CCCC2)CC(=O)N1CCCCN1CCN(c2cc(Cl)ccc2Cl)CC1`
OUTPUT: -1.58

INPUT: // query log10(Ki) value for entry `O=S1(=O)c2cccc3cccc(c23)N1CCCCCCN1CCN(c2ccccc2Cl)CC1`
OUTPUT: -0.97

INPUT: // query log10(Ki) value for entry `COc1ccc2c(=O)c3cc(CN4CCN(c5ccccc5OC)CC4)ccc3oc2c1.Cl`
OUTPUT: -0.37

INPUT: // query log10(Ki) value for entry `O=C1c2ccccc2/C=C\c2ccccc2N1CCCN1CCOCC1`
OUTPUT: 1.60

INPUT: // query log10(Ki) value for entry `COc1ccccc1N1CCN(CCC(=O)c2cccs2)CC1`
OUTPUT: -2.00

INPUT: // query log10(Ki) value for entry `O=C1CCc2ccc(OCCCCN3CCN(c4cccc5ccccc45)CC3)nc2N1`
OUTPUT: -2.43

INPUT: // query log10(Ki) value for entry `O=C1c2ccccc2S(=O)(=O)N1CCCCCCN1CCN(c2ccc(Cl)cc2)CC1`
OUTPUT: -1.08

INPUT: // query log10(Ki) value for entry `CCOc1ccccc1OCCNCCOc1ccccc1OCc1ccccc1`
OUTPUT: -2.30

INPUT: // query log10(Ki) value for entry `Cc1ccc2c(OCCN3CCN(Cc4cccc5ncncc45)CC3)cccc2n1`
OUTPUT: -0.40

INPUT: // query log10(Ki) value for entry `COc1ccc(NC(=O)N2CCN(c3cccc4c3CCCC4)CC2)cc1N1CCN(C)CC1`
OUTPUT: -0.59

INPUT: // query log10(Ki) value for entry `COc1cccc(CCc2ccccc2OCCCCN2CCN(c3cccc(Cl)c3)CC2)c1`
OUTPUT: 0.12

INPUT: // query log10(Ki) value for entry O=C(NC[C@H]1C[C@@H]1CN1CCN(c2cccc(Cl)c2Cl)CC1)c1ccc(-c2ccccn2)cc1 (relative stereo)
OUTPUT: -1.23

----------
Literature survey of Ki (system: 5-hydroxytryptamine receptor 1A (Homo sapiens, UniProt P08908)).
Just the number please, in nM, no unit attached.

INPUT: // query Ki value for entry `Cc1cc2c(OC[C@@H](O)CN3CC[C@@H](c4cc5c(F)cccc5s4)C[C@@H]3C)cccc2[nH]1`
OUTPUT: 0.75

INPUT: // query Ki value for entry CCN(CCCc1c[nH]c2ccc(F)cc12)C1COc2cccc(OC)c2C1 (racemic)
OUTPUT: 2.3

INPUT: // query Ki value for entry `COc1ccccc1Sc1ccccc1N1CCNCC1`
OUTPUT: 59

INPUT: // query Ki value for entry `O=C1c2cccc3cccc(c23)N1CCCCCCN1CCN(c2cccc(Cl)c2Cl)CC1`
OUTPUT: 122

INPUT: // query Ki value for entry `CC(=O)c1c(C)cc2oc(=O)cc(C)c2c1OCCCCN1CCN(c2ccncc2)CC1`
OUTPUT: 308

INPUT: // query Ki value for entry `COc1cccc(Sc2ccccc2N2CCNCC2)c1`
OUTPUT: 140

INPUT: // query Ki value for entry CCOc1ccccc1N1CCN(CC(O)CN2C(=O)NC(C)(c3ccccc3)C2=O)CC1.Cl (racemic)
OUTPUT: 190

INPUT: // query Ki value for entry `Cc1ncc2c(N3CCN(CCc4ccc5c(c4)NC(=O)CO5)CC3)cccc2n1`
OUTPUT: 0.398

INPUT: // query Ki value for entry `CN1CCC(N2CCOc3ccc(NC(=O)c4ccc(F)cc4)cc32)CC1`
OUTPUT: 860

INPUT: // query Ki value for entry `COc1ccccc1N1CCN(CC/C(=N\O)c2ccccc2)CC1`
OUTPUT: 17.4

INPUT: // query Ki value for entry `Cc1ccc2c3c(ccc2n1)OC[C@H](CN1CCCN(c2ccc4cc(F)ccc4n2)CC1)O3`
OUTPUT: 1.5

INPUT: // query Ki value for entry `C[C@H]1CN(c2cccc3cc(F)ccc23)CCN1CC[C@H]1OCc2cc(C(N)=O)ccc21`
OUTPUT: 13

INPUT: // query Ki value for entry `CSc1ccccc1N1CCN(Cc2ccc(C(=O)N3CCC[C@H]3C(N)=O)cc2)CC1`
OUTPUT: 313

INPUT: // query Ki value for entry `CC(C)c1ccccc1OCCN1CCC(CNS(=O)(=O)c2cccc(Cl)c2)CC1`
OUTPUT: 104

INPUT: // query Ki value for entry `O=C1Cc2cc(CCN3CCN(c4nsc5ccccc45)CC3)c(Cl)cc2N1`
OUTPUT: 4

INPUT: // query Ki value for entry `NC(=O)[C@@H]1CCCN1C(=O)CCCCCN1CCN(c2ccccc2Cl)CC1`
OUTPUT: 232

INPUT: // query Ki value for entry `N#Cc1ccc(CNC(=O)CCOCCN2CCN(c3ncccc3-c3ccccc3)CC2)cc1`
OUTPUT: 595

INPUT: // query Ki value for entry CC1(c2ccc(F)cc2)NC(=O)N(CC(O)CN2CCC(Oc3ccc(Cl)cc3)CC2)C1=O (centres undefined)
OUTPUT: 21500

INPUT: // query Ki value for entry `O=C(NCCCCN1CCN(c2ncccn2)CC1)c1cc2ccccc2cn1`
OUTPUT: 67

INPUT: // query Ki value for entry COc1ccc(CNCCC(c2ccccc2)c2ccc3c(c2)OCO3)cc1 (centres undefined)
OUTPUT: 15600

INPUT: // query Ki value for entry `O=C([C@@H]1Cc2ccccc2CN1C(=O)CCCCN1CCN(c2ccccc2-c2ccccc2)CC1)N1CCCCC1`
OUTPUT: 47

INPUT: // query Ki value for entry COc1ccccc1N1CCN(CCCn2cc(CCCN3CCc4cc(O)c(O)cc4C(c4cccc(C)c4)C3)nn2)CC1 (racemic)
OUTPUT: 133

INPUT: // query Ki value for entry COc1cccc(OC)c1O[C@@H]1CCC(NCC2COc3ccccc3O2)C1O (stereo in doubt; 8)
OUTPUT: 33.9

INPUT: // query Ki value for entry CC(COc1ccccc1-c1ccccc1)N1CCC(NS(=O)(=O)c2cccc(Cl)c2)CC1 (centres undefined)
OUTPUT: 696

INPUT: // query Ki value for entry `O=S(=O)(c1cncc2ccccc12)N1CCC(CCN2CCN(c3ccccc3)CC2)CC1`
OUTPUT: 543

INPUT: // query Ki value for entry `Cc1ccc2c(OCCN3CCC(Cc4cccc(-c5cccnc5)c4)CC3)cccc2n1`
OUTPUT: 5.01

INPUT: // query Ki value for entry `O=C(NCc1ccccc1)C1CCN(C(=O)c2ccc(-c3ccccc3)cc2)CC1`
OUTPUT: 9390

INPUT: // query Ki value for entry `CCCCCCCCC/C=C/C(=O)CCc1ccc(O)c(OC)c1`
OUTPUT: 5840

INPUT: // query Ki value for entry `Cc1cc2c(OC[C@@H](O)CN3CC[C@@H](c4ccc5ccccc5c4)C[C@@H]3C)cccc2[nH]1`
OUTPUT: 5.11

INPUT: // query Ki value for entry O=S(=O)(NC1CCN(CCOc2ccccc2-c2ccccc2)C1)c1cccs1 (centres undefined)
OUTPUT: 45

INPUT: // query Ki value for entry Fc1ccc2[nH]cc([C@H]3CC[C@@H](NCC4COc5ccccc5O4)CC3)c2c1 (some centres undefined)
OUTPUT: 332

INPUT: // query Ki value for entry `COc1cc(OC)c2cc([C@@H]3CCN(C[C@H](O)COc4cccc5[nH]c(C)cc45)[C@@H](C)C3)sc2c1`
OUTPUT: 23.1

INPUT: // query Ki value for entry CCN(CCCc1c[nH]c2ccc(F)cc12)C1COc2ccc3c(c2C1)C(=O)NCC3 (racemic)
OUTPUT: 6

INPUT: // query Ki value for entry `COc1ccc(N2CCN(CCCCn3ncc(=O)n(C)c3=O)CC2)c(OC)c1`
OUTPUT: 190

INPUT: // query Ki value for entry `CC(C)c1ccccc1N1CCN(CCCCCC(=O)NCc2ccncc2)CC1`
OUTPUT: 325

INPUT: // query Ki value for entry `COc1ccccc1N1CCN(CCCCN2C(=O)C[C@H](NC(C)=O)C2=O)CC1`
OUTPUT: 69

INPUT: // query Ki value for entry `O=C(NCCCCN1CCN(c2cccc(C(F)(F)F)c2)CC1)c1cc2ccccc2[nH]1`
OUTPUT: 1.9

INPUT: // query Ki value for entry `COc1ccc(-c2ccccc2N2CCN(CCCCCC(=O)N[C@H](C)c3ccc(C#N)cc3)CC2)cc1`
OUTPUT: 109
